- assayed_target: Human HER2 expressed on tumour cells (human, UniProt P04626 23-1255)
- experiment_summary: cell-based or functional assay
quantity_kind: % activity vs. DARPin # 41, BT474 cell proliferation (%)
Answer with a number only, understood to be in %.

GET /values?readout=% activity vs. DARPin # 41, BT474 cell proliferation&item= DARPin #41 (designed binder) MRGSHHHHHHGSDLGAKLLSDLGVKLLWAAARGQDDEVRILLAAGADVNAKDFQGITPLHIAAQSGHLEIVEVLLKAGADVNAKDVTGDTPLHLAAQHGHLVIVEVLLKAGADVNAQDERGWTPADLAADWGHEDIAEVLQKLGGGGSGGGGSRSDLGKKLLEAARAGQDDEVRILMANGADVNAKDEYGLTPLYLATAHGHLEIVEVLLKNGADVNAVDAIGFTPLHLAAFIGHLEIAEVLLKHGADVNAQDKFGKTAFDISIGNGNEDLAEILQKLN 100
